- Tested system: human aromatase (Homo sapiens)
- Construct: The enzyme preparation was used without further purification; from tissue; host or cells: human placenta, microsomal fraction (100000×g precipitate)
- Sequence (P11511 whole entry): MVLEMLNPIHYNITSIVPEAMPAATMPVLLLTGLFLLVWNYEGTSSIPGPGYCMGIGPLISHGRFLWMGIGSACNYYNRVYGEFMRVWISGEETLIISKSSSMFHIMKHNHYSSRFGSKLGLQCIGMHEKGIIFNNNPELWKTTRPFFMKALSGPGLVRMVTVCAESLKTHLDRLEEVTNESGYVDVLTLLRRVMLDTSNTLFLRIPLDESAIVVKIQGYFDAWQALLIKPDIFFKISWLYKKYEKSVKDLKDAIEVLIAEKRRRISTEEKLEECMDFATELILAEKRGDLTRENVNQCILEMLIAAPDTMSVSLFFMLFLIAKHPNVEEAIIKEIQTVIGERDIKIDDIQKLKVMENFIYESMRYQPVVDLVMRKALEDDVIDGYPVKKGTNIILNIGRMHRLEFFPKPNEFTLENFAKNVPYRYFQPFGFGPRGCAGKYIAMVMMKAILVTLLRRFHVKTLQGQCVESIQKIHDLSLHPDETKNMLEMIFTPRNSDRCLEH
- Experiment description: In vitro inhibition of human placental aromatase (3H2O release from 1,2[3H]-androstene-3,17-dione)
- Format: biochemical
- Settings: read-out: AROMATASE IC-90
Value kind: IC90 (µM)

1. OC(CCc1c[nH]cn1)(c1ccc(Cl)cc1)c1ccc(Cl)cc1 = 1000

P = C(Cc1c[nH]cn1)=C(c1ccccc1)c1ccccc1
Q = Clc1ccc(C(=CCc2c[nH]cn2)c2ccc(Cl)cc2)cc1
[Q] Name the one with the greater IC90 value, either P or Q as given. Choose, then provide that item's label.
[A] Q
(Q: 600 µM, P: 100 µM)
